For each entry below, report its normalised response value.
# Tested on: BT-549
# ASSAY: normalised response (% of control), CellTiter-Glo; higher = more viable cells (100 = DMSO, 0 = benzethonium chloride kill control)
# CONDITIONS: incubation time: 72 h
Numbers only, in %.

Example entries begin here.
| MOLECULE | READOUT_KIND | ASSAY_RESULT |
| --- | --- | --- |
| O=C(c1ccc(OCCN2CCCCC2)cc1)c1c(-c2ccc(O)cc2)sc2cc(O)ccc12 [Raloxifene] (10 nM) | normalised response | 94.8 |
| COc1cccc2c1C(=O)c1c(O)c3c(c(O)c1C2=O)C[C@@](O)(C(C)=O)C[C@@H]3O[C@H]1C[C@H](N)[C@H](O)[C@H](C)O1 [Daunorubicin] (1 nM) | normalised response | 94.2 |
| C[C@@H]1CCN(C(=O)CC#N)C[C@@H]1N(C)c1ncnc2[nH]ccc12 [Tofacitinib] (5 nM) | normalised response | 97.2 |
| COc1c(C)cnc(Cn2cnc3c(Cl)nc(N)nc32)c1C [BIIB021] (10 nM) | normalised response | 99.6 |
| CC(C)(C)c1cc(NC(=O)Nc2ccc(-c3cn4c(n3)sc3cc(OCCN5CCOCC5)ccc34)cc2)no1 [Quizartinib] (100 nM) | normalised response | 106 |

Give normalised response for each listed item.
1. Nc1nccc(-c2c(-c3ccc(F)cc3)ncn2C2CCCCC2)n1 (1000 nM)
2. O=c1[nH]c(=O)n([C@H]2C[C@H](O)[C@@H](CO)O2)cc1F [Floxuridine] (10 nM)

[101, 100]

* * *

For each entry below, report its normalised viability value.
# System: SK-BR-3
# ASSAY: normalised viability (% of control), CellTiter-Blue; higher = more viable cells (about 100 = DMSO control)
# CONDITIONS: 1000 nM; incubation time: 72 h

| COMPOUND | ASSAY_RESULT |
| --- | --- |
| C[C@@]1(C(=O)Nc2ccc(F)nc2)CCCN1c1nc(Nc2cc(C3CC3)n[nH]2)c2cccn2n1 | 71% |
| CCS(=O)(=O)c1cccc(-c2cc(C(=O)NC3CCN(C)CC3)c(C)c3[nH]c4ncc(C)cc4c23)c1 [TAK-901] | 52% |
| COc1ccc(C2=N[C@@H](c3ccc(Cl)cc3)[C@@H](c3ccc(Cl)cc3)N2C(=O)N2CCNC(=O)C2)c(OC(C)C)c1 [Nutlin-3] | 98.1% |

Give normalised viability for each listed item.
1. O=C(c1ccc(OCCN2CCCCC2)cc1)c1c(-c2ccc(O)cc2)sc2cc(O)ccc12 [Raloxifene]
2. O=c1[nH]cc(F)c(=O)[nH]1 [Fluorouracil]
3. COC(=O)C[C@](O)(CCCC(C)(C)O)C(=O)O[C@@H]1C(OC)=C[C@]23CCCN2CCc2cc4c(cc2[C@H]13)OCO4 [Omacetaxine mepesuccinate]

94.7%
62.4%
6.71%

* * *

# Tested on: DU-4475
# ASSAY: normalised response (% of control), CellTox Green; higher = less cell death (100 = DMSO, 0 = benzethonium chloride kill control)
# CONDITIONS: incubation time: 72 h
READOUT_KIND: normalised response (%)
Numbers only, in %.

Example entries begin here.
| COMPOUND | normalised response / % |
| --- | --- |
| CN(c1ccccc1CNc1nc(Nc2ccc3c(c2)CC(=O)N3)ncc1C(F)(F)F)S(C)(=O)=O (10000 nM) | 64.2 |
| O=C(c1ccc(OCCN2CCCCC2)cc1)c1c(-c2ccc(O)cc2)sc2cc(O)ccc12 [Raloxifene] (100 nM) | 103 |
| CCOc1cc2ncc(C#N)c(Nc3ccc(OCc4ccccn4)c(Cl)c3)c2cc1NC(=O)/C=C/CN(C)C [Neratinib] (1000 nM) | 94.7 |
| CCS(=O)(=O)c1cccc(-c2cc(C(=O)NC3CCN(C)CC3)c(C)c3[nH]c4ncc(C)cc4c23)c1 [TAK-901] (1000 nM) | 97 |

Give normalised response for each listed item.
1. CCCC(CCC)C(=O)O [Valproic acid] (1000000 nM)
2. CS(=O)(=O)CCNCc1ccc(-c2ccc3ncnc(Nc4ccc(OCc5cccc(F)c5)c(Cl)c4)c3c2)o1 [Lapatinib] (10 nM)
3. Cn1cnc2c(F)c(Nc3ccc(Br)cc3F)c(C(=O)NOCCO)cc21 [MEK-162] (100 nM)

97
101
87.3

Give normalised response for each listed item.
1. CC(C)C[C@H](NC(=O)[C@H](Cc1ccccc1)NC(=O)c1cnccn1)B(O)O [Bortezomib] (100 nM)
2. CC(C)(C)c1cc(NC(=O)Nc2ccc(-c3cn4c(n3)sc3cc(OCCN5CCOCC5)ccc34)cc2)no1 [Quizartinib] (10 nM)
3. C#Cc1cccc(Nc2ncnc3cc(OC)c(OCCCCCCC(=O)NO)cc23)c1 [CUDC-101] (1000 nM)

[89.7, 99.3, 81.3]

* * *

# Tested on: MDA-MB-468
# ASSAY: normalised viability (% of control), CellTiter-Blue; higher = more viable cells (100 = DMSO, 0 = benzethonium chloride kill control)
# CONDITIONS: incubation time: 72 h
READOUT_KIND: normalised viability (%)
Answers are plain numbers, in %.

Example entries begin here.
| COMPOUND | READOUT_KIND | ASSAY_RESULT |
| --- | --- | --- |
| O=C(c1ccc(OCCN2CCCCC2)cc1)c1c(-c2ccc(O)cc2)sc2cc(O)ccc12 [Raloxifene] (1 nM) | normalised viability | 105 |
| COc1c(C)cnc(Cn2cnc3c(Cl)nc(N)nc32)c1C [BIIB021] (1 nM) | normalised viability | 94.6 |
| CN1CCN(c2ccc3nc(-c4c(N)c5c(F)cccc5[nH]c4=O)[nH]c3c2)CC1 [Dovitinib] (1 nM) | normalised viability | 89.2 |
| O=P(O)(NCCCl)NCCCl [Ifosfamide mustard] (1 nM) | normalised viability | 101 |

Give normalised viability for each listed item.
1. O=c1[nH]cc(F)c(=O)[nH]1 [Fluorouracil] (1 nM)
2. CC(C)(C)c1cc(NC(=O)Nc2ccc(-c3cn4c(n3)sc3cc(OCCN5CCOCC5)ccc34)cc2)no1 [Quizartinib] (0.1 nM)

113
92.3

* * *

# Test system: HCC1143
# ASSAY: normalised viability (% of control), CellTiter-Blue; higher = more viable cells (about 100 = DMSO control)
# CONDITIONS: 100 nM; incubation time: 72 h
For each entry below, report its normalised viability value.
Don't forget the unit after the value.

Example entries begin here.
| MOLECULE | READOUT_KIND | ASSAY_RESULT |
| --- | --- | --- |
| C[C@@]1(C(=O)Nc2ccc(F)nc2)CCCN1c1nc(Nc2cc(C3CC3)n[nH]2)c2cccn2n1 | normalised viability | 72.8% |
| COC(=O)C[C@](O)(CCCC(C)(C)O)C(=O)O[C@@H]1C(OC)=C[C@]23CCCN2CCc2cc4c(cc2[C@H]13)OCO4 [Omacetaxine mepesuccinate] | normalised viability | 37.7% |
| COC1=C2C[C@@H](C)C[C@H](OC)[C@H](O)[C@@H](C)/C=C(\C)[C@H](OC(N)=O)[C@@H](OC)/C=C\C=C(/C)C(=O)NC(=CC1=O)C2=O [Geldanamycin] | normalised viability | 44.3% |

Give normalised viability for each listed item.
1. O=c1[nH]c(=O)n([C@H]2C[C@H](O)[C@@H](CO)O2)cc1F [Floxuridine]
2. c1ccc(C2CN3CCSC3=N2)cc1 (stereo not given) [Tetramisole]

1: 101%; 2: 116%

* * *

# System: BT-474
# ASSAY: drug sensitivity score (DSS), CellTiter-Blue viability (DSS (AUC-based score)); higher = stronger viability inhibition; extreme values may be limits of the assay
# CONDITIONS: incubation time: 72 h
READOUT_KIND: drug sensitivity score
Give bare numbers.

| COMPOUND | drug sensitivity score |
| --- | --- |
| CC(=O)O[C@H]1C(=O)[C@@]2(C)[C@H]([C@H](OC(=O)c3ccccc3)[C@]3(O)C[C@H](OC(=O)[C@H](O)[C@@H](NC(=O)c4ccccc4)c4ccccc4)C(C)=C1C3(C)C)[C@]1(OC(C)=O)CO[C@@H]1C[C@@H]2O | 19 |
| C[C@@H]1C=C2C(=O)O[C@@H]3CC[C@H](C1)[C@]23O | 2.65 |
| COc1c(C)cnc(Cn2cnc3c(Cl)nc(N)nc32)c1C | 18.8 |
| CC(C)(C)c1cc(NC(=O)Nc2ccc(-c3cn4c(n3)sc3cc(OCCN5CCOCC5)ccc34)cc2)no1 | 0 |
| CCS(=O)(=O)c1cccc(-c2cc(C(=O)NC3CCN(C)CC3)c(C)c3[nH]c4ncc(C)cc4c23)c1 | 0 |

Give drug sensitivity score for each listed item.
1. CC(C)C[C@H](NC(=O)[C@H](Cc1ccccc1)NC(=O)c1cnccn1)B(O)O
2. O=P(O)(NCCCl)NCCCl [Ifosfamide mustard]
3. Cn1cnc2c(F)c(Nc3ccc(Br)cc3F)c(C(=O)NOCCO)cc21
4. O=c1[nH]cc(F)c(=O)[nH]1

1: 18.8; 2: 0; 3: 0; 4: 0
